# targetSystem: UniProt:P07711
# testProtocol: Cathepsin enzyme inhibition assay (fluorogenic peptide substrate Z-Val-Val-Arg-AMC), Cathepsin L
# Assay type: biochemical, human and mouse
# testContext: enzyme 1 nM, substrate 20 μM, pH 6.5; read-out: CatL IC50
measurementKind: IC50

CC(=O)N1C[C@H](S(=O)(=O)c2ccc(-n3ccnc3)cc2C(F)(F)F)C[C@H]1C(=O)NC1(C#N)CC1 ≥ 25 µM

Simply: CC1(C(=O)N2C[C@H](S(=O)(=O)CC3CC3)C[C@H]2C(=O)NC2(C#N)CC2)CC1 , UniProt:P07711, IC50 = ≥ 25 µM

Simply: N#CC1(NC(=O)[C@@H]2C[C@@H](S(=O)(=O)CC3CC3)CN2C(=O)C2(C(F)(F)F)CC2)CC1 , UniProt:P07711, IC50 = ≥ 25 µM

Simply: CC(=O)N[C@H]1CC[C@H](CC(=O)N2C[C@H](S(=O)(=O)c3ccc(OCC(F)(F)F)cc3Cl)C[C@H]2C(=O)NC2(C#N)CC2)CC1 , UniProt:P07711, IC50 = 9.13 µM

###

# targetSystem: UniProt:P07711
# testProtocol: Cathepsin enzyme inhibition assay (fluorogenic peptide substrate Z-Val-Val-Arg-AMC), Cathepsin L
# Format: biochemical, human and mouse
# testContext: read-out: CatL IC50; enzyme 1 nM, substrate 20 μM, pH 6.5
measurementKind: pIC50
Please treat pIC50 as minus the base-10 logarithm of the molar concentration.

Simply: Cc1cc(-c2ccc(S(=O)(=O)[C@@H]3C[C@@H](C(=O)NC4(C#N)CC4)N(C(=O)C4(C(F)(F)F)CC4)C3)c(C(F)(F)F)c2)ccn1 [Example 248] , UniProt:P07711, pIC50 = 4.26

###

Catalogue of compounds with associated log10(IC50)
# targetSystem: UniProt P07711
# testProtocol: Cathepsin enzyme inhibition assay (fluorogenic peptide substrate Z-Val-Val-Arg-AMC), Cathepsin L
# Type: biochemical, human and mouse
# testContext: enzyme 1 nM, substrate 20 μM, pH 6.5; read-out: CatL IC50
Counter-ions that a name gives are not always drawn.
Log10 applied to IC50; unit prior to transform: µM.

# count of solved cases: 5
compound	targetSystem	endpointResult
N#CC1(NC(=O)[C@@H]2C[C@@H](S(=O)(=O)c3ccc(OCC(F)(F)F)cc3Cl)CN2C(=O)C(c2ccc(Cl)cc2)c2ccc(Cl)cc2)CC1 [Example 275]	UniProt P07711	0.43
N#CC1(NC(=O)[C@@H]2C[C@@H](S(=O)(=O)c3ccc(N4CCOCC4)cc3C(F)(F)F)CN2)CC1 [Example 29, hydrochloride]	UniProt P07711	1.60
N#CC1(NC(=O)[C@@H]2C[C@@H](S(=O)(=O)c3ccc(OCC(F)(F)F)cc3Cl)CN2C(=O)C2(c3ccccc3)CCCCC2)CC1 [Example 303]	UniProt P07711	0.17
Cc1cc(N2C[C@H](S(=O)(=O)c3ccccc3Cl)C[C@H]2C(=O)NC2(C#N)CC2)n(Cc2ccccc2)n1 [Example 379]	UniProt P07711	0.43
Cc1cc(N2C[C@H](S(=O)(=O)c3ccccc3Cl)C[C@H]2C(=O)NC2(C#N)CC2)n(C2CCCCC2)n1 [Example 477]	UniProt P07711	-0.50

Recorded result, CC1(C(=O)N2C[C@H](S(=O)(=O)c3ccc(OCC(F)(F)F)cc3Cl)C[C@H]2C(=O)NC2(C#N)CC2)CC1 [Example 175] , log10(IC50): 1.20

Recorded result, N#CC1(NC(=O)[C@@H]2C[C@@H](S(=O)(=O)c3ccc(Cl)cc3Cl)CN2)CC1 [Example 15, Hydrochloride] , log10(IC50): 0.69

###

# targetSystem: Cathepsin S (UniProt P25774)
# testProtocol: Cathepsin enzyme inhibition assay (fluorogenic peptide substrate Z-Val-Val-Arg-AMC), Cathepsin S
# Type: biochemical, human and mouse
# testContext: enzyme 1 nM, substrate 20 μM, pH 6.5; read-out: CatS IC50
pIC50: −log10 of the molar value.
// label = MET if pIC50 is not less than 9, otherwise NOT MET

Below, 3 molecules whose answers are already recorded.
molecule	targetSystem	assignedLabel
N#CC1(NC(=O)[C@@H]2C[C@@H](S(=O)(=O)c3ccccc3Cl)CN2S(=O)(=O)c2ccc(-c3cnco3)cc2)CC1	Cathepsin S (UniProt P25774)	MET
N#CC1(NC(=O)[C@H]2CC(S(=O)(=O)c3ccc(OCC(F)(F)F)cc3Cl)CN2)CC1 (stereo partly drawn)	Cathepsin S (UniProt P25774)	NOT MET
N#CC1(NC(=O)[C@@H]2C[C@@H](S(=O)(=O)c3ccc(OCC(F)(F)F)cc3Cl)CN2C(=O)C2(c3ccc(Cl)cc3)CCCC2)CC1	Cathepsin S (UniProt P25774)	MET

Would you say Cn1cc(-c2ccc(S(=O)(=O)[C@@H]3C[C@@H](C(=O)NC4(C#N)CC4)N(C(=O)C4(C)CC4)C3)c(C(F)(F)F)c2)cn1 shows pIC50 at minimum 9?
MET

Would you say N#CC1(NC(=O)[C@@H]2C[C@@H](S(=O)(=O)c3ccc(N4CCC(F)(F)CC4)cc3Cl)CN2)CC1 shows pIC50 at minimum 9?
NOT MET

Would you say N#CC1(NC(=O)[C@@H]2C[C@@H](S(=O)(=O)c3ccccc3Cl)CN2C(=O)Oc2ccc(F)cc2)CC1 shows pIC50 at minimum 9?
NOT MET

Would you say N#Cc1cccc(N2CC(S(=O)(=O)c3ccccc3C(F)(F)F)CC2C(=O)NC2(C#N)CC2)c1 (stereo not drawn) shows pIC50 at minimum 9?
MET

###

# targetSystem: Cathepsin S (UniProt P25774)
# testProtocol: Cathepsin enzyme inhibition assay (fluorogenic peptide substrate Z-Val-Val-Arg-AMC), Cathepsin S
# Format: biochemical, human and mouse
# testContext: enzyme 1 nM, substrate 20 μM, pH 6.5; read-out: CatS IC50
Catalogue of compounds with associated IC50
Numeric only. Scale: nM

compound	IC50 (nM)
Cn1cc(-c2ccc(S(=O)(=O)[C@@H]3C[C@@H](C(=O)NC4(C#N)CC4)N(C(=O)C4(C(F)(F)F)CC4)C3)c(C(F)(F)F)c2)cn1 [Example 238]	0.05
N#CC1(NC(=O)[C@@H]2C[C@@H](S(=O)(=O)c3ccccc3Cl)CN2C(=O)C2(c3ccc(Cl)cc3F)CC2)CC1 [Example 439]	0.895

Recorded result, N#CC1(NC(=O)[C@@H]2C[C@@H](S(=O)(=O)c3ccccc3)CN2C(=O)C2CCOCC2)CC1 [Example 74] , IC50: 6.6

Recorded result, N#CC1(NC(=O)[C@@H]2C[C@@H](S(=O)(=O)CC3CC3)CN2C(=O)C2(c3ccc(Cl)cc3)CC2)CC1 [Example 424] , IC50: 410

Recorded result, C[C@H](Oc1ccc(S(=O)(=O)[C@@H]2C[C@@H](C(=O)NC3(C#N)CC3)N(C(=O)C3(C(F)(F)F)CC3)C2)c(Cl)c1)C(F)(F)F [Example 183] , IC50: 0.44

Recorded result, Cc1cc(N2C[C@H](S(=O)(=O)c3ccccc3Cl)C[C@H]2C(=O)NC2(C#N)CC2)n(C2CCS(=O)(=O)CC2)n1 [Example 479] , IC50: 3.24

###

# targetSystem: Cathepsin S (UniProt P25774)
# testProtocol: Cathepsin enzyme inhibition assay (fluorogenic peptide substrate Z-Val-Val-Arg-AMC), Cathepsin S
# Format: biochemical, human and mouse
# testContext: enzyme 1 nM, substrate 20 μM, pH 6.5; read-out: CatS IC50
Structures can show the parent of a compound that is named as a salt.
measurementKind: pIC50
Please treat pIC50 as minus the base-10 logarithm of the molar concentration.

# count of solved cases: 6
compound	pIC50
N#CC1(NC(=O)[C@@H]2C[C@@H](S(=O)(=O)c3ccc(N4CCN(C5CC5)CC4)cc3Cl)CN2C(=O)C2(c3ccc(Cl)nc3)CC2)CC1	10.15
CC(C)(C)OC(=O)N1C[C@H](S(=O)(=O)c2ccc(F)cc2Cl)C[C@H]1C(=O)NC1(C#N)CC1	7.90
CC1(C(=O)N2C[C@H](S(=O)(=O)c3ccc(OCC(F)(F)F)cc3Cl)C[C@H]2C(=O)NC2(C#N)CC2)COC1	9.45
N#CC1(NC(=O)[C@@H]2C[C@@H](S(=O)(=O)c3ccccc3Cl)CN2C(=O)CC(F)(F)F)CC1	9.52
CC(C)(C)OC(=O)N[C@@H](C(=O)N1C[C@H](S(=O)(=O)c2ccccc2Cl)C[C@H]1C(=O)NC1(C#N)CC1)c1ccc(Cl)cc1	8.56
N#CC1(NC(=O)[C@@H]2C[C@@H](S(=O)(=O)c3ccccc3CO)CN2)CC1 [Example 12, Hydrochloride]	7.74

Recorded result, CC(C)c1nccn1-c1ccc(S(=O)(=O)[C@@H]2C[C@@H](C(=O)NC3(C#N)CC3)N(C(=O)C3(c4ccc(Cl)cc4)CC3)C2)c(Cl)c1 , pIC50: 9.48

Recorded result, N#CCNC(=O)[C@@H]1C[C@@H](S(=O)(=O)c2ccccc2)CN1CC1CCCCC1 , pIC50: 7.83

Recorded result, CC(C)CS(=O)(=O)[C@@H]1C[C@@H](C(=O)NC2(C#N)CC2)N(C(=O)OC(C)(C)C)C1 , pIC50: 5.50

Recorded result, CC1(C(=O)N2C[C@H](S(=O)(=O)c3ccc(Br)cc3C(F)(F)F)C[C@H]2C(=O)NC2(C#N)CC2)CC1 , pIC50: 9.40

Recorded result, CC(C#N)(NC(=O)[C@@H]1C[C@@H](S(=O)(=O)c2ccccc2Cl)CN1)c1ccccc1 (some centres unmarked) [Example 48, Hydrochloride] , pIC50: 6.63

Recorded result, N#CC1(NC(=O)C2CC(S(=O)(=O)c3ccccc3C(F)(F)F)CN2c2cccc(C(F)(F)F)c2)CC1 (centres unmarked) , pIC50: 9.76

Recorded result, CC(=O)N1C[C@H](S(=O)(=O)c2ccc(F)cc2Cl)C[C@H]1C(=O)NC1(C#N)CC1 , pIC50: 8.21

Recorded result, CC(C)(C)OC(=O)N1C[C@H](S(=O)(=O)c2ccc(OCC(F)(F)F)cc2C(F)(F)F)C[C@H]1C(=O)NC1(C#N)CC1 , pIC50: 9.10

Recorded result, N#CC1(NC(=O)[C@@H]2C[C@@H](S(=O)(=O)c3ccc(-n4ccccc4=O)cc3C(F)(F)F)CN2)CC1 [Example 31, hydrochloride] , pIC50: 8.70

Recorded result, Cc1cc(N2C[C@H](S(=O)(=O)c3ccccc3C(F)(F)F)C[C@H]2C(=O)NC2(C#N)CC2)n(-c2ccnc(Cl)c2)n1 , pIC50: 9.70

Recorded result, N#CC1(NC(=O)[C@@H]2C[C@@H](S(=O)(=O)c3ccc(-n4cccn4)cc3Cl)CN2C(=O)C2(C(F)(F)F)CC2)CC1 , pIC50: 9.40

Recorded result, CC(CN1C[C@H](S(=O)(=O)c2ccccc2Cl)C[C@H]1C(=O)NC1(C#N)CC1)C(F)(F)F (some centres unmarked) , pIC50: 7.07

Recorded result, N#CC1(NC(=O)[C@@H]2C[C@@H](S(=O)(=O)c3ccc(N4CCCC4=O)cc3C(F)(F)F)CN2)CC1 [Example 26, hydrochloride] , pIC50: 8.55

Recorded result, CC(Oc1ccc(S(=O)(=O)[C@H]2CN[C@H](C(=O)NC3(C#N)CC3)C2)c(Cl)c1)C(F)(F)F (some centres unmarked) , pIC50: 8.10

Recorded result, N#CC1(NC(=O)[C@@H]2C[C@@H](S(=O)(=O)c3ccccc3Cl)CN2C(=O)C2(c3ccncc3)CC2)CC1 , pIC50: 9.64

Recorded result, CC(C)CC(=O)N1C[C@H](S(=O)(=O)c2ccc(Cl)cc2Cl)C[C@H]1C(=O)NC1(C#N)CC1 , pIC50: 9.05

Recorded result, CC(C)(C)OC(=O)N1C[C@H](S(=O)(=O)c2ccccc2OC(F)(F)F)C[C@H]1C(=O)NC1(C#N)CC1 , pIC50: 7.36
